// data source = patent US20130078247A1

Target: T1, recombinant human Jagged-1 (Alexis) (human, UniProt P78504 34-1067, limits assumed)
T1 construct: also called hJagged-1; hJAG1
Experiment: rhDLL1/rhJAG1 binding ELISA

{"binder": "DLLBII133G05 (VHH, not shown: C-terminal c-myc and His6 tags) VHH: EVQLVESGGGLVQPGGSLRLSCAASGFTFGSYDMSWVRRSPGKGPEWVSAINSGGGSTYYTDYVKGRFTISRDNAKNTLYLQMNSLKPEDTAVYYCAADRYIWARQGEYWGAYAYDYWGQGTQVTVSS", "binding result": "no binding"}
{"binder": "DLLBII129E11 (VHH, not shown: C-terminal c-myc and His6 tags) VHH: EVQLVESGGGLVQAGGSLRLSCAASGRTFSSYAMAWYRQAPGKEREYVAAIRWSGGTAYYADSVQGRFTISRDNAKNTVYLQMNSLKPEDTAVYYCANRAPDTRLRPYLYDYWGQGTQVTVSS", "binding result": "no binding"}
